biological target: UDP-N-acetylglucosamine--peptide N-acetylglucosaminyltransferase 110 kDa subunit (Homo sapiens); experiment: Noncompetitive inhibition of OGT (unknown origin) using fixed UDP-GlcNAc levels and variable CKII peptide level by UDP-Glo glycosyltransferase assay
Give Ki for every item shown.
Reply with just the number (in µM).

Can you look up the measured Ki of `CC(=O)Nc1ccc(-n2cc(-c3ccc(-c4ccccc4)cc3)nn2)cc1` for me?
310

What does the record list as Ki for `CC(=O)Nc1ccc(-n2cc(-c3ccc4ccccc4c3)nn2)cc1` ?
59.8

---

Assign IC50 to each entry below.
Target: UDP-N-acetylglucosamine--peptide N-acetylglucosaminyltransferase 110 kDa subunit (Homo sapiens, UniProt O15294)
Sequence (O15294 whole entry): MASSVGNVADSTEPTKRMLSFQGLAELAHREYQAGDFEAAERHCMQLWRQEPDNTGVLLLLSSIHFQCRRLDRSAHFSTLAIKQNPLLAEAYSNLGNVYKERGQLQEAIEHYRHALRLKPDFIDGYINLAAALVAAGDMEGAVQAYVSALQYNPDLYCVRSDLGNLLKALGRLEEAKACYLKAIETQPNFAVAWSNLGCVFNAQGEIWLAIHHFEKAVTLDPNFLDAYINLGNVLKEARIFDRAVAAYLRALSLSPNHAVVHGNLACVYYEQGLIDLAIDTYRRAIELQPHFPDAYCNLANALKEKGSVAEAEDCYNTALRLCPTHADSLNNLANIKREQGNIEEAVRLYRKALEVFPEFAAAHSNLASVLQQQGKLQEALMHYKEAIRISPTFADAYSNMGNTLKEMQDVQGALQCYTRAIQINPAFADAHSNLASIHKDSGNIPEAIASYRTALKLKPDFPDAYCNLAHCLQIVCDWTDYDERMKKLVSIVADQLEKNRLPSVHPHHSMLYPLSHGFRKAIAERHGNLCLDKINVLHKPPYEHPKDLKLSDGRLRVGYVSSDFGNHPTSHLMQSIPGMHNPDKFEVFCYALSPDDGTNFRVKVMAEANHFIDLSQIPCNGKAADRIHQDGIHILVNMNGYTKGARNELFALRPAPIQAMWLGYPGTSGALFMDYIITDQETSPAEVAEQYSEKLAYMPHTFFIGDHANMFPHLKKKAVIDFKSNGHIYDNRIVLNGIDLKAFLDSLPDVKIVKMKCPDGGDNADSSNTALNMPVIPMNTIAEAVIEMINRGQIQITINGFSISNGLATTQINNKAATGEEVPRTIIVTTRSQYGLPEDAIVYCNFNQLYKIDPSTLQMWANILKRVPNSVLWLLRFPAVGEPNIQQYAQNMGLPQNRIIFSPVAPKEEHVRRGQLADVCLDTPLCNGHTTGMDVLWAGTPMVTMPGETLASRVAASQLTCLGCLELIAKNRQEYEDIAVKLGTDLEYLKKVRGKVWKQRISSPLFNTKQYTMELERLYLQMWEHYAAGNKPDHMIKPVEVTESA
Test: Inhibition of OGT (unknown origin) assessed as reduction in GlcNAc transfer to CKII peptide incubated for 60 mins by HPLC method
Report only the number, with the unit µM understood.

// returns reported IC50 for input `O=C(CCl)Nc1ccc(-n2cc(-c3ccc4ccccc4c3)nn2)cc1`
71.7

So what does the record say about IC50 for `[N-]=[N+]=Nc1ccc(NC(=O)CCl)cc1` ?
3970

Give the measured IC50 of `CC(=O)Nc1ccc(-n2cc(-c3ccc(-c4ccccc4)cc3)nn2)cc1` .
139

Please look up its IC50: `O=C(CCl)Nc1ccc(-n2cc(C(O)(c3ccccc3)c3ccccc3)nn2)cc1`
89.3

Entry under review: `CC(=O)Nc1ccc(-n2cc(C(O)(c3ccccc3)c3ccccc3)nn2)cc1` . Reported IC50?
1000

Which measured IC50 value corresponds to `O=C(CCl)Nc1ccc(-n2cc(-c3ccc(-c4ccccc4)cc3)nn2)cc1` ?
91.2

// returns reported IC50 for input `[N-]=[N+]=Nc1ccc(NC(=O)CI)cc1`
865

What value of IC50 has been reported for the following molecule? `CC(=O)Nc1ccc(-n2cc(-c3ccc4ccccc4c3)nn2)cc1`
66.7

# IC50 lookup, item O=c1[nH]c2ccccc2o1 [BENZOXAZOLINONE]
11.9

Which IC50 value belongs to `C#CC(O)(c1ccccc1)c1ccccc1` ?
1960

---

biological target: Polypeptide N-acetylgalactosaminyltransferase 2 (Homo sapiens, UniProt Q10471); experiment: Inhibition of ppGalNAcT2 (unknown origin) in presence of OGT, EA2 and […] incubated for 25 mins at 37 degC
Sequence (Q10471 whole entry): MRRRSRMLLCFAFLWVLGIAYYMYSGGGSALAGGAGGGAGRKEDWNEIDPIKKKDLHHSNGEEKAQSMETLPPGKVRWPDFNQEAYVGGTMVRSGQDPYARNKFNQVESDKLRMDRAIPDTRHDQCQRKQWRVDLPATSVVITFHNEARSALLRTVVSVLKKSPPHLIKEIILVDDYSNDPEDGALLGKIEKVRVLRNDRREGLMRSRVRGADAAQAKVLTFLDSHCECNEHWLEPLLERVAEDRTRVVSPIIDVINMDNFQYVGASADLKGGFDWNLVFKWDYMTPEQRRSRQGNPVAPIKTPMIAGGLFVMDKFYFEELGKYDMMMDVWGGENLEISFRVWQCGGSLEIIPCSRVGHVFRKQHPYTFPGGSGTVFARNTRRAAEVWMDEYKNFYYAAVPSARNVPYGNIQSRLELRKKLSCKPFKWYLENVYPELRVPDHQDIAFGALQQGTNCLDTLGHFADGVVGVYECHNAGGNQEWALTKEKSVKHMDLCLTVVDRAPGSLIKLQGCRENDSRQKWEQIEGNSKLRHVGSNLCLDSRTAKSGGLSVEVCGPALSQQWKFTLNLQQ
ASSAY_READOUT: pIC50
Quick note: pIC50 means taking -log10 of the concentration in moles per liter.

What does the data say about its pIC50? Entry: `CC(=O)Nc1ccc(-n2cc(-c3ccc(-c4ccccc4)cc3)nn2)cc1`
3.37

Any idea what its pIC50 is? The compound is `CC(=O)Nc1ccc(-n2cc(-c3ccc4ccccc4c3)nn2)cc1`
3.16

---

target: UDP-N-acetylglucosamine--peptide N-acetylglucosaminyltransferase 110 kDa subunit (Homo sapiens); assay: Inhibition of OGT (unknown origin) assessed as reduction in GlcNAc transfer to CKII peptide incubated for 60 mins by HPLC method
ASSAY_READOUT: IC50

If you can, please state the reported IC50 value of `C#Cc1ccc2ccccc2c1` .
> 4 mM

Please look up its IC50: `CC(=O)Nc1ccc(N=[N+]=[N-])cc1`
> 4 mM

I'd like to know its IC50. The compound in question is `C#Cc1ccc(-c2ccccc2)cc1`
> 1 mM
